Reference source: patent US20090305995A1

Assay: high throughput permeability (HT-Permeability, log Pe)
Format: physicochemical
Conditions: PAMPA, pH 4, pH 4.0; Pe in cm/s; read-out: HT-Permeability logPe pH 4.0 (converted)
parameter_measured: Papp (nm/s)
Numbers only, in nm/s.

Take a look at these entries with their results.
{"molecule": "CC(=O)N[C@H](CC(=O)N[C@H](Cc1c[nH]c2ccccc12)C(=O)N[C@@H](CCCCN)CC(N)=O)Cc1ccccc1 [Compound 58]", "data_value": 10}
{"molecule": "CCC(=O)N(C)[C@H](CC(=O)N[C@H](Cc1c[nH]c2ccccc12)C(=O)N[C@@H](CCCCN)CC(=O)NC1CCCC1)Cc1ccccc1 [Compound 46]", "data_value": 10}
{"molecule": "C[C@H]1OC(=O)C[C@H]1NC(=O)C[C@H](CCCCN)NC(=O)[C@@H](Cc1c[nH]c2ccccc12)NC(=O)C[C@H](Cc1ccccc1)NC(=O)CCc1ccccc1 [Compound 10]", "data_value": 1}

Respectfully, I request Papp for each entry included below.
1. CC(=O)N(C)[C@H](CC(=O)N[C@H](Cc1c[nH]c2ccccc12)C(=O)N[C@@H](CCCCN)CC(=O)N[C@@H]1CC(=O)O[C@@H]1C)Cc1ccccc1 [Compound 39]
2. CC(=O)N[C@H](CC(=O)N(C)[C@H](Cc1cn(C)c2ccccc12)C(=O)N[C@@H](CCCCN)CC(=O)N[C@@H]1CC(=O)O[C@@H]1C)Cc1ccccc1 [Compound 37]
3. CCCCCCCCC(=O)N[C@H](CC(=O)N[C@H](Cc1c[nH]c2ccccc12)C(=O)N[C@@H](CCCCN)CC(=O)N[C@H](CC(N)=O)[C@@H](C)O)Cc1ccccc1 [Compound 17]
4. CCCCCN(C)C(=O)C[C@H](CCCCN)NC(=O)[C@@H](Cc1c[nH]c2ccccc12)NC(=O)C[C@H](Cc1ccccc1)NC(=O)CCC [Compound 41]
5. CC(=O)N[C@H](CC(=O)N[C@H](Cc1c[nH]c2ccccc12)C(=O)N[C@@H](CCCCN)CC(=O)NC1CCCC1)Cc1ccccc1 [Compound 31]
6. CCCCCN(C)C(=O)C[C@H](CCCCN)NC(=O)[C@@H](Cc1c[nH]c2ccccc12)NC(=O)C[C@H](Cc1ccccc1)NC(=O)CC [Compound 48]

50.1
63.1
126
25.1
25.1
31.6

###

Provide the reported HT-Solubility pH 1.0 of each item.
Experiment: high throughput solubility (HT-Solubility)
Type: physicochemical
Conditions: pH 1.0
Numbers only, in g 1-1.

{"given_smiles": "CCCCCNC(=O)C[C@H](CCCCN)NC(=O)[C@@H](Cc1c[nH]c2ccccc12)NC(=O)C[C@H](Cc1ccccc1)NC(=O)CC", "HT-Solubility pH 1.0 [g 1-1]": 0.1266}
{"given_smiles": "CCCCCCN(C)C(=O)C[C@H](CCCCN)NC(=O)[C@@H](Cc1c[nH]c2ccccc12)N(Cc1ccccc1)C(=O)C[C@H](Cc1ccccc1)NC(=O)CC", "HT-Solubility pH 1.0 [g 1-1]": 0.0751}
{"given_smiles": "CN(C(=O)C[C@@H](N)Cc1ccccc1)[C@H](Cc1c[nH]c2ccccc12)C(=O)N[C@@H](CCCCN)CC(N)=O", "HT-Solubility pH 1.0 [g 1-1]": 0.1041}

Respectfully, I request HT-Solubility pH 1.0 for each entry included below.
1. CCCCCN(C)C(=O)C[C@H](CCCCN)NC(=O)[C@@H](Cc1c[nH]c2ccccc12)NC(=O)C[C@H](Cc1ccccc1)NC(=O)CC
2. CC(=O)N[C@H](CC(=O)N[C@H](Cc1c[nH]c2ccccc12)C(=O)N[C@@H](CCCCN)CC(=O)N[C@H](CC(N)=O)[C@@H](C)O)Cc1ccccc1
3. CCCCCNC(=O)C[C@H](CCCCN)NC(=O)[C@@H](Cc1c[nH]c2ccccc12)NC(=O)C[C@H](Cc1ccccc1)NC(C)=O
4. C[C@H]1OC(=O)C[C@H]1NC(=O)C[C@H](CCCCN)NC(=O)[C@@H](Cc1c[nH]c2ccccc12)NC(=O)C[C@@H](N)Cc1ccccc1

1. 0.1294
2. 0.0133
3. 0.1236
4. 0.121
